# protocol-notes: Cytotoxicity against human HFL1 cells
# Type: toxicity, cell-based
pIC50: −log10 of the molar value.
readout-name: pIC50

Form field: reported pIC50 of `CC(C)(C)Nc1ncc(-c2cnn(C(C)(C)CC(=O)O)c2)cc1-c1nc2ccccc2o1`
< 4.00

###

# protocol-notes: Half life in male mouse at 5 mg/kg, po
# Assay type: ADME, organism-based
# setup-conditions: in vivo
readout-name: half-life
Write the numeric value and append its unit.

Return reported half-life; argument: `CC(C)(C)Nc1ncc(-c2cnn(C(C)(C)CC(=O)O)c2)cc1-c1nc2ccccc2o1`
213 min

###

# protocol-notes: Oral bioavailability in male mouse at 5 mg/kg
# Assay type: ADME, organism-based
# setup-conditions: in vivo
readout-name: bioavailability

Which bioavailability is listed for `CC(C)(C)Nc1ncc(-c2cnn(C(C)(C)CC(=O)O)c2)cc1-c1nc2ccccc2o1` ?
85%

FYI, the data here is from ChEMBL document CHEMBL5614414.
